test system: H3255; assay: relative viability (nuclei count vs DMSO), 5 days (fraction); higher = more cells survive; conditions: first compound 2.53 µM
OBSERVABLE: relative viability

The cases that follow already have their relative viability on record.
COMPOUND	relative viability
Cc1cnc(-c2cnc(NCCNc3ccc(C#N)cn3)nc2-c2ccc(Cl)cc2Cl)[nH]1 + N=C(N)NC(=N)NCCc1ccccc1 [Phenformin] (partner 250 µM)	0.349
O=c1[nH]c2ccccc2n1C1CCN(CCCC(c2ccc(F)cc2)c2ccc(F)cc2)CC1 [Pimozide] + N=C(N)NC(=N)NCCc1ccccc1 [Phenformin] (partner 250 µM)	0.372

Input: Read off the recorded relative viability for O=c1[nH]c2ccccc2n1C1CCN(CCCC(c2ccc(F)cc2)c2ccc(F)cc2)CC1 [Pimozide] + CS(=O)(=O)CCNCc1ccc(-c2ccc3ncnc(Nc4ccc(OCc5cccc(F)c5)c(Cl)c4)c3c2)o1 [Lapatinib] (partner 2 µM)
Output: 0.229

* * *

test system: UMC-11; experiment: relative viability (nuclei count vs DMSO), 5 days (fraction); higher = more cells survive; settings: first compound 0.0002 µM
Recorded relative viability for the following compounds
Lab note: record just the number, no unit beside it.

The cases that follow already have their relative viability on record.
COMPOUND	relative viability
CC(=O)O[C@@]12CO[C@@H]1C[C@H](O)[C@@]1(C)C(=O)[C@H](O)C3=C(C)[C@@H](OC(=O)[C@H](O)[C@@H](NC(=O)OC(C)(C)C)c4ccccc4)C[C@@](O)([C@@H](OC(=O)c4ccccc4)[C@H]21)C3(C)C [Docetaxel] + C[C@@H](Oc1cc(-c2cnn(C3CCNCC3)c2)cnc1N)c1c(Cl)ccc(F)c1Cl [Crizotinib] (partner 1 µM)	0.612
CC(=O)O[C@@]12CO[C@@H]1C[C@H](O)[C@@]1(C)C(=O)[C@H](O)C3=C(C)[C@@H](OC(=O)[C@H](O)[C@@H](NC(=O)OC(C)(C)C)c4ccccc4)C[C@@](O)([C@@H](OC(=O)c4ccccc4)[C@H]21)C3(C)C [Docetaxel] + COc1cccc2cc(-c3nc([C@H]4CC[C@H](C(=O)O)CC4)n4ncnc(N)c34)[nH]c12 [OSI-027] (partner 0.5 µM)	0.433

Input: Read off the recorded relative viability for CC(=O)O[C@@]12CO[C@@H]1C[C@H](O)[C@@]1(C)C(=O)[C@H](O)C3=C(C)[C@@H](OC(=O)[C@H](O)[C@@H](NC(=O)OC(C)(C)C)c4ccccc4)C[C@@](O)([C@@H](OC(=O)c4ccccc4)[C@H]21)C3(C)C [Docetaxel] + O=C(c1cc(Cc2n[nH]c(=O)c3ccccc23)ccc1F)N1CCN(C(=O)C2CC2)CC1 [Olaparib] (partner 8 µM)
Output: 0.371

Input: Read off the recorded relative viability for CC(=O)O[C@@]12CO[C@@H]1C[C@H](O)[C@@]1(C)C(=O)[C@H](O)C3=C(C)[C@@H](OC(=O)[C@H](O)[C@@H](NC(=O)OC(C)(C)C)c4ccccc4)C[C@@](O)([C@@H](OC(=O)c4ccccc4)[C@H]21)C3(C)C [Docetaxel] + COc1cc2c(Oc3ccc(NC(=O)C4(C(=O)Nc5ccc(F)cc5)CC4)cc3F)ccnc2cc1OCCCN1CCOCC1 [Foretinib] (partner 0.25 µM)
Output: 0.934

Input: Read off the recorded relative viability for CC(=O)O[C@@]12CO[C@@H]1C[C@H](O)[C@@]1(C)C(=O)[C@H](O)C3=C(C)[C@@H](OC(=O)[C@H](O)[C@@H](NC(=O)OC(C)(C)C)c4ccccc4)C[C@@](O)([C@@H](OC(=O)c4ccccc4)[C@H]21)C3(C)C [Docetaxel] + CC(=O)c1c(C)c2cnc(Nc3ccc(N4CCNCC4)cn3)nc2n(C2CCCC2)c1=O [Palbociclib] (partner 0.5 µM)
Output: 0.322

* * *

Recorded relative viability for the following compounds
system: NCI-H522; assay: relative viability (nuclei count vs DMSO), 5 days (fraction); higher = more cells survive; details: first compound 0.006325 µM
Lab note: record just the number, no unit beside it.

COMPOUND	OBSERVED_MEASUREMENT
CC(=O)O[C@@]12CO[C@@H]1C[C@H](O)[C@@]1(C)C(=O)[C@H](O)C3=C(C)[C@@H](OC(=O)[C@H](O)[C@@H](NC(=O)OC(C)(C)C)c4ccccc4)C[C@@](O)([C@@H](OC(=O)c4ccccc4)[C@H]21)C3(C)C [Docetaxel] + Cc1cc(Nc2cc(N3CCN(C)CC3)nc(Sc3ccc(NC(=O)C4CC4)cc3)n2)n[nH]1 [Tozasertib] (partner 0.1 µM)	0.551
CC(=O)O[C@@]12CO[C@@H]1C[C@H](O)[C@@]1(C)C(=O)[C@H](O)C3=C(C)[C@@H](OC(=O)[C@H](O)[C@@H](NC(=O)OC(C)(C)C)c4ccccc4)C[C@@](O)([C@@H](OC(=O)c4ccccc4)[C@H]21)C3(C)C [Docetaxel] + Nc1nc2[nH]cc(CCc3ccc(C(=O)N[C@@H](CCC(=O)O)C(=O)O)cc3)c2c(=O)[nH]1 [Pemetrexed] (partner 0.2 µM)	0.636
CC(=O)O[C@@]12CO[C@@H]1C[C@H](O)[C@@]1(C)C(=O)[C@H](O)C3=C(C)[C@@H](OC(=O)[C@H](O)[C@@H](NC(=O)OC(C)(C)C)c4ccccc4)C[C@@](O)([C@@H](OC(=O)c4ccccc4)[C@H]21)C3(C)C [Docetaxel] + CC(=O)c1c(C)c2cnc(Nc3ccc(N4CCNCC4)cn3)nc2n(C2CCCC2)c1=O [Palbociclib] (partner 0.5 µM)	0.565

Continue with the compound presented below.
Input: # lookup: NCI-H522 relative viability, key = CC(=O)O[C@@]12CO[C@@H]1C[C@H](O)[C@@]1(C)C(=O)[C@H](O)C3=C(C)[C@@H](OC(=O)[C@H](O)[C@@H](NC(=O)OC(C)(C)C)c4ccccc4)C[C@@](O)([C@@H](OC(=O)c4ccccc4)[C@H]21)C3(C)C [Docetaxel] + CCNC(=O)c1noc(-c2cc(C(C)C)c(O)cc2O)c1-c1ccc(CN2CCOCC2)cc1 [Luminespib] (partner 0.01 µM)
Output: 0.419

* * *

test system: LCLC-97TM1; experiment: relative viability (nuclei count vs DMSO), 5 days (fraction); higher = more cells survive; conditions: first compound 4 µM
Recorded relative viability for the following molecules
Lab note: record just the number, no unit beside it.

MOLECULE	relative viability
Cc1sc2c(c1C)C(c1ccc(Cl)cc1)=N[C@@H](CC(=O)OC(C)(C)C)c1nnc(C)n1-2 [JQ1] + O=C(CCCCCCC(=O)Nc1ccccc1)NO [Vorinostat] (partner 1 µM)	0.0762
Cc1sc2c(c1C)C(c1ccc(Cl)cc1)=N[C@@H](CC(=O)OC(C)(C)C)c1nnc(C)n1-2 [JQ1] + COc1cc2c(Oc3ccc(NC(=O)C4(C(=O)Nc5ccc(F)cc5)CC4)cc3F)ccnc2cc1OCCCN1CCOCC1 [Foretinib] (partner 0.25 µM)	0.4
Cc1sc2c(c1C)C(c1ccc(Cl)cc1)=N[C@@H](CC(=O)OC(C)(C)C)c1nnc(C)n1-2 [JQ1] + CC(=O)Nc1cccc(-n2c(=O)n(C3CC3)c(=O)c3c(Nc4ccc(I)cc4F)n(C)c(=O)c(C)c32)c1 [Trametinib] (partner 0.02 µM)	0.102

Input: Read off the recorded relative viability for Cc1sc2c(c1C)C(c1ccc(Cl)cc1)=N[C@@H](CC(=O)OC(C)(C)C)c1nnc(C)n1-2 [JQ1] + Cc1nc(Nc2ncc(C(=O)Nc3c(C)cccc3Cl)s2)cc(N2CCN(CCO)CC2)n1 [Dasatinib] (partner 0.075 µM)
Output: 0.352

Input: Read off the recorded relative viability for Cc1sc2c(c1C)C(c1ccc(Cl)cc1)=N[C@@H](CC(=O)OC(C)(C)C)c1nnc(C)n1-2 [JQ1] + N=C(N)NC(=N)NCCc1ccccc1 [Phenformin] (partner 250 µM)
Output: 0.203

* * *

tested on: HOP-62; experiment: relative viability (nuclei count vs DMSO), 5 days (fraction); higher = more cells survive; conditions: first compound 0.000632 µM
OBSERVABLE: relative viability
Lab note: record just the number, no unit beside it.

The cases that follow already have their relative viability on record.
MOLECULE	SYSTEM_UNDER_TEST	relative viability
CC(=O)O[C@@]12CO[C@@H]1C[C@H](O)[C@@]1(C)C(=O)[C@H](O)C3=C(C)[C@@H](OC(=O)[C@H](O)[C@@H](NC(=O)OC(C)(C)C)c4ccccc4)C[C@@](O)([C@@H](OC(=O)c4ccccc4)[C@H]21)C3(C)C [Docetaxel] + COc1cc2c(Oc3ccc(NC(=O)C4(C(=O)Nc5ccc(F)cc5)CC4)cc3F)ccnc2cc1OCCCN1CCOCC1 [Foretinib] (partner 0.25 µM)	HOP-62	0.732
CC(=O)O[C@@]12CO[C@@H]1C[C@H](O)[C@@]1(C)C(=O)[C@H](O)C3=C(C)[C@@H](OC(=O)[C@H](O)[C@@H](NC(=O)OC(C)(C)C)c4ccccc4)C[C@@](O)([C@@H](OC(=O)c4ccccc4)[C@H]21)C3(C)C [Docetaxel] + CC(=O)c1c(C)c2cnc(Nc3ccc(N4CCNCC4)cn3)nc2n(C2CCCC2)c1=O [Palbociclib] (partner 0.5 µM)	HOP-62	0.353
CC(=O)O[C@@]12CO[C@@H]1C[C@H](O)[C@@]1(C)C(=O)[C@H](O)C3=C(C)[C@@H](OC(=O)[C@H](O)[C@@H](NC(=O)OC(C)(C)C)c4ccccc4)C[C@@](O)([C@@H](OC(=O)c4ccccc4)[C@H]21)C3(C)C [Docetaxel] + Nc1nc2[nH]cc(CCc3ccc(C(=O)N[C@@H](CCC(=O)O)C(=O)O)cc3)c2c(=O)[nH]1 [Pemetrexed] (partner 0.2 µM)	HOP-62	0.362

Continue with the molecule presented below.
Input: Read off the recorded relative viability for CC(=O)O[C@@]12CO[C@@H]1C[C@H](O)[C@@]1(C)C(=O)[C@H](O)C3=C(C)[C@@H](OC(=O)[C@H](O)[C@@H](NC(=O)OC(C)(C)C)c4ccccc4)C[C@@](O)([C@@H](OC(=O)c4ccccc4)[C@H]21)C3(C)C [Docetaxel] + Cc1nc(Nc2ncc(C(=O)Nc3c(C)cccc3Cl)s2)cc(N2CCN(CCO)CC2)n1 [Dasatinib] (partner 0.075 µM)
Output: 0.58

The origin of these recorded values is the supplement of paper PMC10307832.
